# SYSTEM TESTED: Flt-4 (baculovirus expressed human Flt-4 kinase domain D725-R1298) (Homo sapiens, UniProt P35916)
# Construct: human Flt-4 kinase domain D725-R1298; host or cells: baculovirus expression
# Sequence (P35916 725-1298 isoform P35916-1): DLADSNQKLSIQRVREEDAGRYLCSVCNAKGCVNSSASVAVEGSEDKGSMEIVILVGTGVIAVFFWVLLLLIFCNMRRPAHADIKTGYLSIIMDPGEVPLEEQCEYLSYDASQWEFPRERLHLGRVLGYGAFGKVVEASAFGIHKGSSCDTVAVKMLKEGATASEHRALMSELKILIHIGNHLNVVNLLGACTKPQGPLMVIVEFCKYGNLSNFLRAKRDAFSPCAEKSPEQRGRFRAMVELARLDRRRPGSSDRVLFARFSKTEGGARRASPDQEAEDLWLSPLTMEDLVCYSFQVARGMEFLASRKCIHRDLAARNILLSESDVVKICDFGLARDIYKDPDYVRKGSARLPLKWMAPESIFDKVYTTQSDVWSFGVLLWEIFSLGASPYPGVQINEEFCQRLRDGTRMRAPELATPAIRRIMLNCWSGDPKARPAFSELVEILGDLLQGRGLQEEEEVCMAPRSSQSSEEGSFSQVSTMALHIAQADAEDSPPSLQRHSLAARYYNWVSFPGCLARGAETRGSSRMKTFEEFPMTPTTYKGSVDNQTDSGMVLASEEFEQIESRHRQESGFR
# TEST DETAILS: flt-4 Alphascreen Tyrosine Kinase assay
# Assay type: biochemical
# EXPERIMENTAL PARAMETERS: Table 4, inhibition as IC50 class; read-out: flt4 IC50
VALUE KIND: IC50

- COc1cc2c(Oc3ccc(NC(=O)C(=O)N[C@H]4CCCc5ccccc54)cc3F)ccnc2cc1OCC1CCNCC1: < 0.05 µM
- COc1cc2c(Oc3ccc(NC(=O)C(=O)NCC(c4ccccc4)c4ccccc4)cc3F)ccnc2cc1OCC1CCNCC1: 0.05 to 0.5 µM
- COc1cc2c(Oc3ccc(NC(=O)C(=O)NCc4cccc(C(F)(F)F)c4F)cc3F)ccnc2cc1OCC1CCNCC1: < 0.05 µM
- COc1cc2c(Oc3ccc(NC(=O)C(=O)NC4CCCC4)cc3F)ccnc2cc1OCC1CCNCC1: 0.05 to 0.5 µM
- COc1cc2c(Oc3ccc(NC(=O)C(=O)NCc4cc(F)cc(C(F)(F)F)c4)cc3F)ccnc2cc1OCC1CCNCC1: 0.05 to 0.5 µM
- COc1cc2c(Oc3ccc(NC(=O)C(=O)NCc4cc(C(F)(F)F)ccc4F)cc3F)ccnc2cc1OCC1CCNCC1: 0.05 to 0.5 µM
- COc1cc2c(Oc3ccc(NC(=O)C(=O)NCc4cccc(C(F)(F)F)c4)cc3F)ccnc2cc1OCC1CCNCC1: 0.05 to 0.5 µM
- COc1cc2c(Oc3ccc(NC(=O)C(=O)NCCOc4ccccc4)cc3F)ccnc2cc1OCC1CCNCC1: < 0.05 µM
- CCCCc1ccc(CNC(=O)C(=O)Nc2ccc(Oc3ccnc4cc(OCC5CCNCC5)c(OC)cc34)c(F)c2)cc1: 0.05 to 0.5 µM
- CCN(CC)CCCOc1cc2nccc(Oc3ncc(NC(=O)CC(=O)Nc4ccc(F)cc4)cc3Cl)c2cc1OC: 0.05 to 0.5 µM

----------
# SYSTEM TESTED: Flt-3 (baculovirus expressed human Flt-3 kinase domain R571-S993) (Homo sapiens);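 further: Luciferase-coupled chemiluminescent kinase assay, activity read as percent ATP left after a 3 h reaction at room temperature, ATP near KM, 10-point dose-response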
# Construct: human Flt-3 kinase domain R571-S993; host or cells: baculovirus expression
# Sequence (P36888 571-993): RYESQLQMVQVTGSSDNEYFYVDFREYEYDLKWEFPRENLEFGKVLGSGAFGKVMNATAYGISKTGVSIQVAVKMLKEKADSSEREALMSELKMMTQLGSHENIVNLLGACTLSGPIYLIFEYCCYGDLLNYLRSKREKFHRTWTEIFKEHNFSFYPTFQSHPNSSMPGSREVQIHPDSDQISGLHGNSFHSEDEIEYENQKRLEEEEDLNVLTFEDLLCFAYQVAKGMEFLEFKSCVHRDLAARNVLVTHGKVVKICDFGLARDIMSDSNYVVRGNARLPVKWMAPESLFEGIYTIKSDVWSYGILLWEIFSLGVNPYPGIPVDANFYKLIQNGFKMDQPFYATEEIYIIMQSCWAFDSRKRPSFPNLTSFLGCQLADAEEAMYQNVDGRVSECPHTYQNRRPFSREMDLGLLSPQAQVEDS
# TEST DETAILS: biochemical
# EXPERIMENTAL PARAMETERS: Table 4, inhibition as IC50 class; read-out: flt3 IC50
Quick list: IC50 per entry.
VALUE KIND: IC50

* COc1ccc(CNC(=O)C(=O)Nc2ccc(Oc3ccnc4cc(OCC5CCN(C)CC5)c(OC)cc34)c(F)c2)cc1 | 50 to 500 nM
* COc1ccc(NC(=O)C(=O)Nc2ccc(Oc3ccnc4cc(OCC5CCNCC5)c(OC)cc34)c(F)c2)cc1OC | 50 to 500 nM
* COc1cc2c(Oc3ccc(NC(=O)C(=O)N[C@@H]4CCCc5ccccc54)cc3F)ccnc2cc1OCC1CCNCC1 | 50 to 500 nM

----------
# SYSTEM TESTED: Flt-4 (baculovirus expressed human Flt-4 kinase domain D725-R1298) (Homo sapiens, UniProt P35916)
# Construct: human Flt-4 kinase domain D725-R1298; host or cells: baculovirus expression
# TEST DETAILS: flt-4 Alphascreen Tyrosine Kinase assay
# Type: biochemical
VALUE KIND: IC50 (nM)

• COc1cc2nccc(Oc3ccc(NC(=O)C4(C(=O)Nc5ccc(F)cc5)CC4)cc3)c2cc1OC = 5.58

----------
# SYSTEM TESTED: Flt-4 (baculovirus expressed human Flt-4 kinase domain D725-R1298) (Homo sapiens, UniProt P35916)
# Construct: human Flt-4 kinase domain D725-R1298; host or cells: baculovirus expression
# TEST DETAILS: flt-4 Alphascreen Tyrosine Kinase assay;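 further: AlphaScreen chemiluminescence read-out of biotinylated poly(Glu,Tyr) 4:1 phosphorylation via streptavidin donor and PY100 anti-phosphotyrosine acceptor beads, ATP near KM, 1 hr kinase reaction, 10-point dose-response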
# Assay type: biochemical
# EXPERIMENTAL PARAMETERS: read-out: flt4 IC50
VALUE KIND: IC50

* COc1cc2c(Oc3ccc(NC(=O)C(=O)NCC4CC4)cc3F)ccnc2cc1OCC1CCNCC1 | 50 to 500 nM
* COc1cc2c(Oc3ccc(NC(=O)C4(C(=O)Nc5ccc(F)cc5)CC4)cc3F)ccnc2cc1OCCCN1CCN(C)CC1 | < 50 nM
* COc1cc2c(Oc3ccc(NC(=O)C4(C(=O)Nc5ccc(F)cc5)CC4)cc3F)ccnc2cc1OCC1CCN(C)CC1 | < 50 nM
* COc1cc2c(Oc3ccc(NC(=O)C(=O)NCCc4ccc(N)cc4)cc3F)ccnc2cc1OCC1CCNCC1 | 50 to 500 nM
* CCN(C)C(=O)C(=O)Nc1ccc(Oc2ccnc3cc(OCC4CCNCC4)c(OC)cc23)c(F)c1 | 50 to 500 nM
* COc1cc2nccc(Oc3cc(Cl)c(NC(=O)C4(C(=O)Nc5ccc(F)cc5)CC4)cc3C)c2cc1OC | 50 to 500 nM
* COCCNC(=O)C(=O)Nc1ccc(Oc2ccnc3cc(OCC4CCNCC4)c(OC)cc23)c(F)c1 | 500 to 5000 nM

----------
Quick list: pIC50 per entry.
# SYSTEM TESTED: KDR (baculovirus expressed human KDR kinase domain D807-V1356) (Homo sapiens);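 further: Luciferase-coupled chemiluminescent kinase assay, activity read as percent ATP left after 4 h reaction at ambient temperature, ATP near KM, 10-point dose-response in 384-well plates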
# Construct: human KDR kinase domain D807-V1356; host or cells: baculovirus expression
# Sequence (P35968 807-1356): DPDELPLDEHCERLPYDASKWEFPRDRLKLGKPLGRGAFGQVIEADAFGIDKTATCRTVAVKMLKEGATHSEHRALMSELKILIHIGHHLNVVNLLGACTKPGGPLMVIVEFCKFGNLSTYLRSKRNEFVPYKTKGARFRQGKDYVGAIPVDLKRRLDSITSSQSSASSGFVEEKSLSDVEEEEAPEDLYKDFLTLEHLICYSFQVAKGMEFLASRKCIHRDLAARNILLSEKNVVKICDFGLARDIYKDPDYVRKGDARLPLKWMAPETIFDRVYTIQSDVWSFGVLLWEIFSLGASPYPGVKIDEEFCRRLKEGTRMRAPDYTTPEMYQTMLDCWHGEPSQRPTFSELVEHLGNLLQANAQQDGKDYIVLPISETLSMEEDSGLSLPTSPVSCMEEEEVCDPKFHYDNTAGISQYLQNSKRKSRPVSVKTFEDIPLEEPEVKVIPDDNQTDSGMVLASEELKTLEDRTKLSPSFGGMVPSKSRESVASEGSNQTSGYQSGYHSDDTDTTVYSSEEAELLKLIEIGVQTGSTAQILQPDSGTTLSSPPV
# TEST DETAILS: biochemical
# EXPERIMENTAL PARAMETERS: Table 4, inhibition as IC50 class
pIC50: −log10 of the molar value.
VALUE KIND: pIC50

• CCCCc1ccc(CNC(=O)C(=O)Nc2ccc(Oc3ccnc4cc(OCC5CCNCC5)c(OC)cc34)c(F)c2)cc1 [Example 270] = 6.30 to 7.30
• COc1ccc(CCNC(=O)C(=O)Nc2ccc(Oc3ccnc4cc(OCC5CCNCC5)c(OC)cc34)c(F)c2)cc1 [Example 228] = 6.30 to 7.30
• COc1cc2c(Oc3ccc(NC(=O)C(=O)NC4CCCC4)cc3F)ccnc2cc1OCC1CCNCC1 [Example 220] = 6.30 to 7.30
• COc1ccc(NC(=O)C(=O)Nc2ccc(Oc3ccnc4cc(OCC5CCNCC5)c(OC)cc34)c(F)c2)cc1OC [Example 262] = 5.30 to 6.30
• COc1cc2c(Oc3ccc(NC(=O)C(=O)NCc4cc(F)cc(C(F)(F)F)c4)cc3F)ccnc2cc1OCC1CCNCC1 [Example 232] = > 7.30
• CCN(CC)CCCOc1cc2nccc(Oc3ncc(NC(=O)CC(=O)Nc4ccc(F)cc4)cc3Cl)c2cc1OC [Example 267] = 6.30 to 7.30
• COc1cc2c(Oc3ccc(NC(=O)C(=O)NCCc4ccc(Cl)c(Cl)c4)cc3F)ccnc2cc1OCC1CCNCC1 [Example 223] = > 7.30
• COc1cc2c(Oc3ccc(NC(=O)C(=O)NCc4cnccn4)cc3F)ccnc2cc1OCC1CCNCC1 [Example 273] = 5.30 to 6.30
• COc1cc2c(Oc3ccc(NC(=O)C(=O)NCCc4ccc(Br)cc4)cc3F)ccnc2cc1OCC1CCNCC1 [Example 230] = > 7.30
• COc1cc2c(Oc3ccc(NC(=O)C(=O)NCCc4ccccc4)cc3F)ccnc2cc1OCC1CN(C)C1 [Example 250] = > 7.30
• COc1cc2c(Oc3ccc(NC(=O)C(=O)NCc4ccc(OC(F)(F)F)cc4)cc3F)ccnc2cc1OCC1CCNCC1 [Example 246] = 6.30 to 7.30
• COc1cc2c(Oc3ccc(NC(=O)C(=O)NC(C)c4ccc(Br)cc4)cc3F)ccnc2cc1OCC1CCNCC1 (stereo not drawn) [Example 221] = 6.30 to 7.30
• COc1cc2c(Oc3ncc(NC(=O)CC(=O)Nc4ccc(F)cc4)cc3Cl)ccnc2cc1OCCCN1CCOCC1 [Example 266] = 6.30 to 7.30
• COc1cc2c(Oc3ccc(NC(=O)C(=O)NCCOc4ccccc4)cc3F)ccnc2cc1OCC1CCNCC1 [Example 226] = > 7.30
• COc1cc2c(Oc3ccc(NC(=O)C(=O)NCc4cc(C(F)(F)F)ccc4F)cc3F)ccnc2cc1OCC1CCNCC1 [Example 281] = > 7.30

----------
Quick list: pIC50 per entry.
# SYSTEM TESTED: c-Kit kinase (Homo sapiens)
# Sequence (P10721 26-976): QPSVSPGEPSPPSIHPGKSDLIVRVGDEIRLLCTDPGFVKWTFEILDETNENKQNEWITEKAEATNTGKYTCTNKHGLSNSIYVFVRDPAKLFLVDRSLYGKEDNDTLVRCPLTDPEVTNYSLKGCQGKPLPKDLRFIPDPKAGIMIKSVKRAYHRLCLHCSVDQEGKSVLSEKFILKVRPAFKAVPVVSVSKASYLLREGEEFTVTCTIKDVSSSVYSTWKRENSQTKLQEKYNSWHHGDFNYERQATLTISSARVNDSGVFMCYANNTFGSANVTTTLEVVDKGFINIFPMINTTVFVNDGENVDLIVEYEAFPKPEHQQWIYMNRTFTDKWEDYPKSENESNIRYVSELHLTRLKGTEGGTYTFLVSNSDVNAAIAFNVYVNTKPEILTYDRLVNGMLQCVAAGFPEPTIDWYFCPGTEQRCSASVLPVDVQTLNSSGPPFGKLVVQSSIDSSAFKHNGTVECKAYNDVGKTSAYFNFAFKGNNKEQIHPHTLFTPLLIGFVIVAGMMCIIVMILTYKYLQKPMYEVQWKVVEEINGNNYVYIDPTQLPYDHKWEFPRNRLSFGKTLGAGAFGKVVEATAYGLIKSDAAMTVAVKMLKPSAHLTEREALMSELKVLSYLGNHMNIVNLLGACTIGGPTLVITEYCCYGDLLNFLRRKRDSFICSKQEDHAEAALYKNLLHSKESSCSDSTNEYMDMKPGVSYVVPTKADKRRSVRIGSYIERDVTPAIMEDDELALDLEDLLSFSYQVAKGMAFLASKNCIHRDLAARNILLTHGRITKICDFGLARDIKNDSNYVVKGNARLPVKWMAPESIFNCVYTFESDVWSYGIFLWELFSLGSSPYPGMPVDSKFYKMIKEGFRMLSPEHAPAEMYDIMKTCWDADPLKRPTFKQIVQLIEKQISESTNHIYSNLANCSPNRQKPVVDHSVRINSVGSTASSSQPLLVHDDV
# TEST DETAILS: c-Kit AlphaScreen kinase assay;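 further: c-Kit kinase phosphorylating biotinylated poly(Glu,Tyr), ATP near its KM, 1 h reaction at ambient temperature, AlphaScreen chemiluminescence with streptavidin donor and anti-phosphotyrosine acceptor beads, 10-point inhibitor titration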
# Type: biochemical
pIC50: −log10 of the molar value.
VALUE KIND: pIC50

* COc1cc2nccc(Oc3ncc(NC(=O)C4(C(=O)Nc5ccccc5)CC4)cc3Cl)c2cc1OC | 6.30 to 7.30
* COc1cc2c(Oc3ccc(NC(=O)C(=O)NC(C)C)cc3F)ccnc2cc1OCC1CCNCC1 | 6.30 to 7.30
* O=C(Nc1ccc(F)cc1)C1(C(=O)Nc2ccc(Oc3ccnc4cc(Cl)ccc34)cc2)CC1 | 6.30 to 7.30
* COc1cc2nccc(Oc3ccc(NC(=O)C4(C(=O)Nc5ccc(F)cc5)CC4)c(C)n3)c2cc1OC | 6.30 to 7.30
* COc1cc2c(Oc3ccc(NC(=O)C(=O)NCCc4ccccc4)cc3F)ncnc2cc1OCC1C[C@H]2CNC[C@H]2C1 (stereo partly shown) | > 7.30
* COc1cc2nccc(Oc3ccc(NC(=O)C4(C(=O)Nc5ccc(F)cc5)CC4)cc3F)c2cc1OC | > 7.30
* COc1cc2nccc(Oc3c(F)cc(NC(=O)C4(C(=O)Nc5ccc(F)cc5)CC4)cc3F)c2cc1OC | 6.30 to 7.30

// provenance: patent US8476298B2
